# subject-of-test: HIV-1 Env of 96ZM651.02 (HIV-1)
# method-notes: cell-based or functional assay
The entries below come with measured neutralization IC50 values attached.

Sample records with neutralization IC50:
[
  {
    "binder": "CAP256-VRC26.10 (antibody, V domains shown) VH: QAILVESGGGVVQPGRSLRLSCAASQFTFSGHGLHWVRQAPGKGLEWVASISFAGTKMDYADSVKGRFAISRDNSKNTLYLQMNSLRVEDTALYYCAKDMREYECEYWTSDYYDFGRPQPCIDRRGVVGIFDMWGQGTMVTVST VL: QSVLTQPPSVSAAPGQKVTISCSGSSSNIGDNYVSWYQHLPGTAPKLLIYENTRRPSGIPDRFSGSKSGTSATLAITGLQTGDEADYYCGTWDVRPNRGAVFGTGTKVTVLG",
    "observed-value": "> 50 µg/mL"
  },
  {
    "binder": "CAP256-VRC26.06 (antibody, V domains shown) VH: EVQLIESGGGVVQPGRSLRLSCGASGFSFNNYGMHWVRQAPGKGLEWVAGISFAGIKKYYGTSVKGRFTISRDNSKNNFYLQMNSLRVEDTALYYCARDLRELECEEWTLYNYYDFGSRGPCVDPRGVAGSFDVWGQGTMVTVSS VL: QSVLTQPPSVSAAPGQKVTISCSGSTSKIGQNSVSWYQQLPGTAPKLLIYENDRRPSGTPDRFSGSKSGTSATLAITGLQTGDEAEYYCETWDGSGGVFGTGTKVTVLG",
    "observed-value": "> 50 µg/mL"
  },
  {
    "binder": "CAP256-VRC26.05 (antibody, V domains shown) VH: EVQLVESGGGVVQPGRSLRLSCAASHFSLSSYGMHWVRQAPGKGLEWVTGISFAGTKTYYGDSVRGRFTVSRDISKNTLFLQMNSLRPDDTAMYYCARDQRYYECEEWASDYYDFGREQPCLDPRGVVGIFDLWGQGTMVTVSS VL: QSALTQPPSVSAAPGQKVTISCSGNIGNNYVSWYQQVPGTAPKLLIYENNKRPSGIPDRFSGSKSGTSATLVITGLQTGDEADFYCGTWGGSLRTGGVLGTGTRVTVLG",
    "observed-value": "> 50 µg/mL"
  },
  {
    "binder": "CAP256-VRC26.01 (antibody, V domains shown) VH: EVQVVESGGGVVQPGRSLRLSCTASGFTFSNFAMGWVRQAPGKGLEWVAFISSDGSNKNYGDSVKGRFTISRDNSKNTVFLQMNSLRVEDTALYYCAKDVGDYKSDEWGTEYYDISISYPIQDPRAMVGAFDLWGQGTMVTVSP VL: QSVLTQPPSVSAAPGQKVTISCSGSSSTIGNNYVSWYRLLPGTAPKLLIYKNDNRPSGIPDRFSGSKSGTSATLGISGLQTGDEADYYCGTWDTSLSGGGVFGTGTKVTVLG",
    "observed-value": "> 50 µg/mL"
  },
  {
    "binder": "CAP256-VRC26.04 (antibody, V domains shown) VH: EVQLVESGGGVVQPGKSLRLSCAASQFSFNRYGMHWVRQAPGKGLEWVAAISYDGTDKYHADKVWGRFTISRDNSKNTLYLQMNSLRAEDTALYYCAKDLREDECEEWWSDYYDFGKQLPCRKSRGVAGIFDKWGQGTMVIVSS VL: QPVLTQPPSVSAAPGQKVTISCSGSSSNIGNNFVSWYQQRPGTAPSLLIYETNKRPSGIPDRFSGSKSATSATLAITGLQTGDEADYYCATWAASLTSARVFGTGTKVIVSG",
    "observed-value": "> 50 µg/mL"
  }
]

Quick one: give measured neutralization IC50 for CAP256-VRC26.08 (antibody, V domains shown) VH: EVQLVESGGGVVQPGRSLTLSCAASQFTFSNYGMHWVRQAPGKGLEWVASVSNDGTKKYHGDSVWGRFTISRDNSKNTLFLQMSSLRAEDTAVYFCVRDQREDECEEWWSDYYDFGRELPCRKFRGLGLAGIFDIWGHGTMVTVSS VL: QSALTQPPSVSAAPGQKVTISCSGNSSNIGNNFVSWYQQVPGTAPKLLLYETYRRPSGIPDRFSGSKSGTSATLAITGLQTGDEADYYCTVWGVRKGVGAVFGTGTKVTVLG
2.82 µg/mL

Quick one: give measured neutralization IC50 for CAP256-VRC26.11 (antibody, V domains shown) VH: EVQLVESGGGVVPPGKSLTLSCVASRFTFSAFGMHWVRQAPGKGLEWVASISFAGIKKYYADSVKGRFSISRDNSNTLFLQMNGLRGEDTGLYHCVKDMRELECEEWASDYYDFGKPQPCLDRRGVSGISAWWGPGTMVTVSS VL: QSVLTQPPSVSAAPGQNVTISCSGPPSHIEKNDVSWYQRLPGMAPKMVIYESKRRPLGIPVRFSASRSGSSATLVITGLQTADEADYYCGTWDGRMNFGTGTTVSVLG
> 50 µg/mL

Quick one: give measured neutralization IC50 for CAP256-VRC26.02 (antibody, V domains shown) VH: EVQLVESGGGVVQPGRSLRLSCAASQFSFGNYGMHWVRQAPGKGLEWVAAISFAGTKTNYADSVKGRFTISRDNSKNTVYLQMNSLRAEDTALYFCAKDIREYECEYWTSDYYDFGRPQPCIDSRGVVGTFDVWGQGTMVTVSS VL: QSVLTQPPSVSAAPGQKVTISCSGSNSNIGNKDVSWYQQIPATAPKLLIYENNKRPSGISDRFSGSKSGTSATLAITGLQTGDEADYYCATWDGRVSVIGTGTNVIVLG
> 50 µg/mL

Quick one: give measured neutralization IC50 for CAP256-VRC26.09 (antibody, V domains shown) VH: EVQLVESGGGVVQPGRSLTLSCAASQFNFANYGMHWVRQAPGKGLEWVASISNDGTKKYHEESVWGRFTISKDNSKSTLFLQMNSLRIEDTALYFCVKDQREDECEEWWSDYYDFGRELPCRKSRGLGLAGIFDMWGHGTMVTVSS VL: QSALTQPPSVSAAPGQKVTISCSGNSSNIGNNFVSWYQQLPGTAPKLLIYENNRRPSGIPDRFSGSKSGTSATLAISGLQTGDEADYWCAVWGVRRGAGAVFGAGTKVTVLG
0.991 µg/mL
